# TESTED ON: panel of more than 300 wild-type and mutant kinases (313 kinase panel) (Homo sapiens, UniProt Q08881)
# TEST: Kinase profiling in a biochemical assay panel (mobility shift assays and ELISA), %-inhibition at 1 μM; selectivity entropy
# EXPERIMENTAL PARAMETERS: kinase ITK; compound at 1 μM
QUANTITY NAME: %-inhibition of ITK (%)
The reply should contain only the number, in %.

// below: answered compounds
{"COMPOUND": "Cc1cn(-c2cc(NC(=O)c3ccc(C)c(Nc4nccc(-c5cccnc5)n4)c3)cc(C(F)(F)F)c2)cn1", "%-inhibition of ITK [%]": -0.451}
{"COMPOUND": "CO[C@H]1C[C@@H]2CC[C@@H](C)[C@@](O)(O2)C(=O)C(=O)N2CCCC[C@H]2C(=O)O[C@H]([C@H](C)C[C@@H]2CC[C@@H](OCCO)[C@H](OC)C2)CC(=O)[C@H](C)/C=C(\\C)[C@@H](O)[C@@H](OC)C(=O)[C@H](C)C[C@H](C)/C=C/C=C/C=C/1C", "%-inhibition of ITK [%]": -3.61}
{"COMPOUND": "CNC(=O)c1cc(Oc2ccc(NC(=O)Nc3ccc(Cl)c(C(F)(F)F)c3)c(F)c2)ccn1", "%-inhibition of ITK [%]": 2.43}

Problem: I'd like to know its %-inhibition of ITK. The compound in question is COc1cc(Nc2c(C#N)cnc3cc(OCCCN4CCN(C)CC4)c(OC)cc23)c(Cl)cc1Cl
Result: 13

Problem: For C[C@@H](Oc1cc(-c2cnn(C3CCNCC3)c2)cnc1N)c1c(Cl)ccc(F)c1Cl , what is its reported %-inhibition of ITK?
Result: 63

Problem: Which %-inhibition of ITK is listed for COc1cc2c(Nc3ccc(Br)cc3F)ncnc2cc1OCC1CCN(C)CC1 ?
Result: 20

Problem: Look at this compound and give its reported %-inhibition of ITK. COc1cc2nccc(Oc3ccc(NC(=O)C4(C(=O)Nc5ccc(F)cc5)CC4)cc3)c2cc1OC [cabozantinib]
Result: 16

Problem: # get_value(readout='%-inhibition of ITK', item= N#CC[C@H](C1CCCC1)n1cc(-c2ncnc3[nH]ccc23)cn1 )
Result: 30

Problem: Consider the compound shown here: Cc1ccc(Nc2nccc(N(C)c3ccc4c(C)n(C)nc4c3)n2)cc1S(N)(=O)=O What is its recorded %-inhibition of ITK?
Result: 28

Problem: I would be grateful if you could share the reported %-inhibition of ITK for Cc1ccc(C(=O)Nc2ccc(CN3CCN(C)CC3)c(C(F)(F)F)c2)cc1C#Cc1cnc2cccnn12 .
Result: 86
